This listing pairs compounds with measured Cytotoxicity.
System: replicon cells
Assay: Cytotoxicity in replicon cells (MTS assay)
Settings: CC50, MTS assay, three days post dosing
ASSAY_ENDPOINT: Cytotoxicity

- COMPOUND: "COc1nc(N)nc2c1ncn2[C@@H]1O[C@H](COP(=O)(N[C@@H](C)C(=O)OC(C)C)Oc2ccccc2)[C@@H](O)[C@@]1(C)C#N (stereo partly shown)"
  MEASURED: ">100 µM"
- COMPOUND: "CC(C)OP1(=O)OC[C@H]2O[C@@H](n3ccc(=O)[nH]c3=O)[C@](C)(C#N)[C@@H]2O1 (stereo partly shown)"
  MEASURED: ">100 µM"
- COMPOUND: "CCCCOC(=O)[C@H](C)NP(=O)(OC[C@H]1O[C@@H](n2ccc(=O)[nH]c2=O)[C@](C)(C#N)[C@@H]1O)Oc1cccc2ccccc12 (stereo partly shown) [drawing 354]"
  MEASURED: ">100 µM"
- COMPOUND: "C[C@H](NP(=O)(OC[C@H]1O[C@@H](n2ccc(=O)[nH]c2=O)[C@](C)(C#N)[C@@H]1O)Oc1ccccc1)C(=O)O[C@H](C)c1ccccc1 (stereo partly shown)"
  MEASURED: ">100 µM"
- COMPOUND: "CC(C)COC(=O)[C@H](C)NP(=O)(OC[C@H]1O[C@@H](n2ccc(=O)[nH]c2=O)[C@](C)(C#N)[C@@H]1O)Oc1ccccc1 (stereo partly shown) [drawing 352]"
  MEASURED: ">100 µM"
- COMPOUND: "CC(C)OC(=O)[C@H](C)NP(=O)(OC[C@H]1O[C@@H](n2ccc(N)nc2=O)[C@](C)(C#N)[C@@H]1O)Oc1ccccc1 (stereo partly shown) [drawing 363]"
  MEASURED: ">100 µM"
- COMPOUND: "CC(C)COC(=O)[C@H](C)NP(=O)(OC[C@H]1O[C@@H](n2ccc(N)nc2=O)[C@](C)(C#N)[C@@H]1O)Oc1ccccc1 (stereo partly shown)"
  MEASURED: "92 µM"
- COMPOUND: "CC(C)OC(=O)[C@H](C)NP(=O)(OC[C@H]1O[C@@H](n2ccc(N)nc2=O)[C@](C)(C#N)[C@@H]1O)Oc1ccccc1 (stereo partly shown) [drawing 359]"
  MEASURED: ">100 µM"
- COMPOUND: "COc1nc(N)nc2c1ncn2[C@@H]1O[C@H](COP(=O)(N[C@@H](C)C(=O)OC(C)C)Oc2ccccc2OC(C)=O)[C@@H](O)[C@@]1(C)C#N (stereo partly shown)"
  MEASURED: "15 µM"
- COMPOUND: "CCOc1nc(N)nc2c1ncn2[C@@H]1O[C@@H]2COP(=O)(OC3CCC3)O[C@H]2[C@@]1(C)C#N (stereo partly shown)"
  MEASURED: ">100 µM"
- COMPOUND: "CCC(NP(=O)(OC[C@H]1O[C@@H](n2cnc3c(OC)nc(N)nc32)[C@](C)(C#N)[C@@H]1O)Oc1ccccc1)C(=O)OC(C)C (stereo partly shown)"
  MEASURED: ">100 µM"
- COMPOUND: "CC(C)COC(=O)[C@H](C)NP(=O)(OC[C@H]1O[C@@H](n2ccc(=O)[nH]c2=O)[C@](C)(C#N)[C@@H]1O)Oc1ccccc1 (stereo partly shown) [drawing 360]"
  MEASURED: ">100 µM"
- COMPOUND: "CC(C)OC(=O)[C@H](C)NP(=O)(OC[C@H]1O[C@@H](n2ccc(=O)[nH]c2=O)[C@](C)(C#N)[C@@H]1O)Oc1ccccc1 (stereo partly shown)"
  MEASURED: ">100 µM"
